Test: P. aeruginosa biofilm formation inhibitors, primary screen, strain PAO1, LB-PBS medium, absorbance 600 nm (AID 1176); also: test concentration not given here
Settings: P. aeruginosa PAO1 growth/biofilm, A600, 12 h; higher = more signal
# binarize z-score: threshold 0.2 inclusive, high side 1, low side -1

{"COMPOUND": "O=C1[C@H]2[C@H]3[C@H](O)[C@H](O)CC(=NOCc4ccccc4)[C@H]3CC[C@H]2C(=O)N1C1CCCCC1", "LABEL": 1}
{"COMPOUND": "CC(=O)OC[C@H]1O[C@H](C#CCC2CCCCC2)C=C[C@@H]1OC(C)=O", "LABEL": 1}
{"COMPOUND": "CO[C@@H]1COC(=O)CC=C[C@H](C)[C@H](OC)COC(=O)[C@@H]2CCCN2C(=O)CC=C[C@H]1C", "LABEL": -1}
{"COMPOUND": "C[C@H]1C=CCC(=O)OC[C@H](C)C(=O)N2CCC[C@H]2C(=O)OC1", "LABEL": -1}
{"COMPOUND": "COC(=O)[C@H](C)NC(=O)CCC1CC(OC(=O)NCc2cccc3ccccc23)CC2(CCCC(COC(=O)NCCCN3CCCC3=O)O2)O1 (stereo not given in full)", "LABEL": 1}
{"COMPOUND": "C[C@@H]1C=CCC(=O)OC[C@H](C)C(=O)N[C@@H](Cc2ccccc2)C(=O)OC1", "LABEL": -1}
{"COMPOUND": "CCOC(=O)[C@H](Cc1ccccc1)NC(=O)CCC1CC(OC(=O)NCCc2ccc(F)cc2)CC2(CCCC(COC(=O)NCc3cccc(C(F)(F)F)c3)O2)O1 (stereo not given in full)", "LABEL": 1}
{"COMPOUND": "Cc1ccc(S(=O)(=O)N[C@@H]2COC(=O)CC=C[C@@H](C)[C@H](NS(=O)(=O)c3ccc(C)cc3)COC(=O)[C@H](C)NC(=O)CC=C[C@H]2C)cc1", "LABEL": -1}
{"COMPOUND": "CCOC(=O)[C@H](Cc1ccccc1)NC(=O)CCC1CC(OC(=O)NCc2ccc3c(c2)OCO3)CC2(CCCC(COC(=O)NCCOc3ccccc3)O2)O1 (stereo not given in full)", "LABEL": -1}
{"COMPOUND": "O=C(NCCC[N+]1=CC=NC1c1ccccc1)N1CCCc2nc(-c3ccc(Br)cc3)ccc21 (stereo not given)", "LABEL": 1}
{"COMPOUND": "CC(C)CON=C1C[C@@H](O)[C@@H](O)[C@@H]2[C@@H]3C(=O)N(c4ccc(F)cc4F)C(=O)[C@@H]3CC[C@@H]12", "LABEL": -1}
{"COMPOUND": "CC(=O)OC[C@H]1O[C@H](CCON=C(C)CCN2CCCc3nc(C)c(C)cc32)C=C[C@@H]1OC(C)=O", "LABEL": 1}
{"COMPOUND": "CC(CCN1CCCc2nc(C)c(C)cc21)=NO[C@@H](C)c1cn([C@H](CO)Cc2ccccc2)nn1", "LABEL": -1}
{"COMPOUND": "CC(=O)OC[C@H]1O[C@H](CC=NOC[C@@H](O)COCc2ccco2)C=C[C@@H]1OC(C)=O", "LABEL": -1}
{"COMPOUND": "C[C@H]1CC[C@@H](C(=O)O)N[C@@H]1c1cccc(N2CCCC2=O)c1", "LABEL": -1}
{"COMPOUND": "O=C1[C@H]2[C@H]3[C@H](O)[C@H](O)CC(=NOC[C@@H](O)COCc4ccco4)[C@@H]3CC[C@H]2C(=O)N1Cc1ccccc1", "LABEL": -1}
{"COMPOUND": "CCN1C(=O)[C@H]2[C@H]3[C@H](O)[C@H](O)CC(=NNC(=O)OCc4ccccc4)[C@@H]3CC[C@H]2C1=O", "LABEL": -1}
{"COMPOUND": "CC(CCN1CCCCc2nc(C)c(C)cc21)=NO[C@@H](C)c1cc(-c2c(C)cc(C)cc2C)no1", "LABEL": -1}
{"COMPOUND": "C[C@@H]1CC[C@H]2C(=O)OC(CN3C(=O)c4ccccc4C3=O)CN2[C@H]1c1ccc(Br)cc1 (stereo not given in full)", "LABEL": -1}
{"COMPOUND": "COC(=O)[C@@H]1CC[C@H](C)[C@@H](c2ccc(Br)cc2)N1C(=O)C(F)(F)F", "LABEL": 1}
{"COMPOUND": "COC(=O)[C@@H]1CC[C@H](C)[C@@H](c2ccc(Br)cc2)N1", "LABEL": -1}
{"COMPOUND": "CCOC(=O)CCN1C(=O)[C@H]2[C@H]3[C@H](O)[C@H](O)CC(=NOCC=C(C)CCC=C(C)C)[C@H]3CC[C@H]2C1=O", "LABEL": -1}
{"COMPOUND": "CC(C)[C@@H](OCc1ccccc1)[C@H](C)C=NO[C@H](C)c1cn([C@@H]2COC[C@H]2O)nn1", "LABEL": -1}
{"COMPOUND": "COC(=O)[C@@H]1CC[C@H](C)[C@@H](c2ccc(C)cc2)N1C(=O)c1ccc(C=NOC[C@@H](O)[C@H]2O[C@@H]3OC(C)(C)O[C@@H]3[C@H]2O)cc1", "LABEL": 1}
{"COMPOUND": "COc1ccc(O[C@H]2C=C[C@@H](c3ccccc3)O[C@@H]2CON=C(C)CCN2CCCc3nc(C)c(C)cc32)cc1", "LABEL": 1}
{"COMPOUND": "COC(=O)C1=C(C)N(Cc2ccccc2)C2=C3C(=O)OCC[C@@H]3[C@@](O)(C(=O)OC)C(=O)N2[C@@H]1c1ccccc1", "LABEL": -1}
{"COMPOUND": "O=C1C=C[C@@H](O)[C@@H]2[C@@H]3C(=O)N(Cc4ccc5c(c4)OCO5)C(=O)[C@@H]3CC[C@@H]12", "LABEL": -1}
{"COMPOUND": "CCOC(=O)CCN1C(=O)[C@H]2[C@H]3[C@H](O)[C@H](O)CC(=NO[C@@H]4O[C@H](CO)[C@@H](O)[C@H](O)[C@H]4O)[C@H]3CC[C@H]2C1=O", "LABEL": -1}
{"COMPOUND": "O=C1[C@H]2CCn3c(=O)n(-c4ccccc4)c(=O)n3[C@H]2[C@H](O)[C@@H]2O[C@H]12", "LABEL": -1}
{"COMPOUND": "CCOC(=O)[C@H](CC(C)C)NC(=O)CCC1CC(OC(=O)NCc2ccc3c(c2)OCO3)CC2(CCCC(COC(=O)NCCC(C)C)O2)O1 (stereo not given in full)", "LABEL": 1}
